Give melting point for every item shown.

CC(C)S(=O)(=O)C(C#N)=C(Nc1cc(C(F)(F)F)cc(C(F)(F)F)c1)NC1CCCC1	172 to 173 °C

Hi team, please reply with melting point for each item in this list.
1. O=C(CCCCC1CCSS1)Nc1nc(=S)ss1 (centres undefined)
2. NCCOc1cccc(CC(Nc2cc(-c3ccc(OCc4ccccc4)cc3)ncn2)C(=O)O)c1 (centres undefined)
3. CN(C)c1ccc2c(c1)O/C(=C1/Oc3cc(N(C)C)ccc3C1=O)C2=O

Result:
1. 158 to 161 °C
2. 154 °C
3. > 320 °C

====

Please respond with reported melting point for every item in the list.

O=c1c(OCCO)c(-c2ccc(OCc3ccccc3)c(OCc3ccccc3)c2)oc2cc(OCc3ccccc3)ccc12	137 °C
COc1ccccc1N(C)[C@@H](C)[C@H](O)c1ccccc1	84 to 86 °C

Would you mind giving melting point for every compound in the list below?
1. CCc1nnc(-c2ccc(N)cc2)n1-c1ccc(OC)cc1
2. O=C(O)CCCC=CCCc1ccc(OCc2ccccc2)cc1
3. CCCCn1c(COc2ccccc2)nc2c(N)nc3ccccc3c21
4. CCOC(=O)C1CCC(CS(=O)(=O)c2ccc(Oc3ccc(OC(F)(F)F)cc3)cc2)(N(O)C=O)CC1 (configuration not stated)
5. CN(C)C=Nc1c(Cl)cc(N=Cc2ccc(N(C)C)c(Br)c2)cc1Cl

Result:
210 °C
63 to 65 °C
172 to 173 °C
150 to 151 °C
140 to 141 °C

====

measurementKind: melting point

Illustrative cases are given below, each with its answer.
COC(=O)c1sc(C)c(Br)c1OC(=S)N(C)C	152 to 154 °C
NC(CCN1CCC(O)(Cc2ccccc2)CC1)C(=O)c1ccccc1 (stereo not drawn)	123 to 124 °C
CC(C)OC(=O)c1cc([N+](=O)[O-])c(O)c([N+](=O)[O-])c1	108 to 110 °C
CCCCC(=O)c1ccc(-c2ccc(C(=O)Nc3ccc(OC)c(N4CCN(C)CC4)c3)cc2C)cc1	65 to 67 °C
O=C(O)CN1C(=O)c2cccc3c(Cl)ccc(c23)C1=O	260 °C
O=C(CC12CC3CC(CC(C3)C1)C2)Nc1ccc(O)cc1Cl	224 to 225 °C
O=C(Nc1ccc(SC(F)(F)F)c(Cl)c1)c1cc(Cl)c2ccccc2c1O	148 to 149 °C
Cc1cccnc1C(=O)c1[nH]c2cc(Cl)ccc2c1NC(=O)CC(C)C	142 to 144 °C
CC(=O)Oc1ccc(C(=O)c2cccc(OC(C)=O)c2)cc1	81 to 83 °C
CCOc1cc(OC)c(C(=O)C=Cc2ccc(OC)cc2)c(OP(=O)(O)O)c1	85 to 88 °C

For every item in the list below, what is its measured melting point?
1. CC(=O)Nc1ncc(C)cc1C(C)=O
2. N#CC1(c2ccc(F)cc2)CCC(N2CCC3(CC2)C(=O)NCN3c2ccccc2)CC1 (stereo not drawn)
3. CC(=O)SC1C2=C(CCCC2)C(=O)N1c1ccc(Br)cc1F (stereo not drawn)

Result:
1: 99 to 100 °C; 2: 236 °C; 3: 117 to 118 °C

====

measurementKind: melting point

Here's what some known entries look like.
Cc1cnc2c(c1)C(=O)c1cc(-c3ccccc3)c(=O)[nH]c1C2=O	275 °C
COc1nnc(Cl)c(-c2c(F)cc(F)cc2F)c1-c1ccc(Br)cc1	113 to 119 °C
N#CC1=C(c2ccccc2)CN(c2ccccc2)C1=O	188 to 190 °C
CCOC(=O)C(=O)Nc1cc(=O)c2ccccc2o1	167 to 169 °C
CC(C)c1ccc(S(=O)(=O)n2c(Cc3ccc(C(=O)O)c(O)c3)cc3cc(C(F)(F)F)ccc32)cc1	150 °C

Could you report melting point for every entry in the following list?
1. NS(=O)(=O)c1c(C(=O)O)cnn1-c1cccc(Cl)n1
2. Cc1cccc2c1nc1n2CC(C(C)(C)C)Oc2c(Cl)cccc2-1 (centres undefined)
3. CCCCC1(N(C)C)CCC(c2[nH]c3ccccc3c2C)(c2[nH]c3ccccc3c2CCN)CC1 (centres undefined)
4. COCCOc1ccc(/C=C/C(=O)NS(=O)(=O)c2cccc(C)c2)c(Oc2ncc(C(F)(F)F)cc2Cl)c1

Result:
179 to 182 °C
191 to 192 °C
105 to 112 °C
147 to 148 °C

====

measurementKind: melting point

Cc1c(C(=O)O)ncc2[nH]c3ccc(C4CC=CCC4)cc3c12 (centres undefined)	284 to 285 °C
Brc1ncnn1C(c1ccccc1)(c1ccccc1)c1ccccc1	239 to 241 °C
CN(C)C(=O)C1=C(C(=O)Nc2cc(OC3CCCC3)c(Cl)cc2F)CCCC1	136 to 138 °C

Quick one: give me melting point for each item below, same order please.
1. COC(=O)OCC1OC(n2cc(C)c(=O)[nH]c2=O)CC1OS(C)(=O)=O (centres undefined)
2. CCN(c1cc2c3c(c1)CCCC3CCC2)c1ncc(C(=O)O)cn1

Result:
1. 70 to 72 °C
2. 252 to 253 °C

I have 4 molecules here; please give me melting point for each one.
1. C=CCOc1cccn2c(=O)cc(C)nc12
2. NS(=O)(=O)c1cc2cc(O)cnc2s1
3. Cc1ccc(COn2c(C)c(C(C)C(=O)O)c3cc4c(cc32)OCO4)cc1 (centres undefined)
4. COc1cccc2c1nc(C(F)F)n2-c1nc(N2CCOCC2)nc(N2CCN(S(=O)(=O)C(F)(F)F)CC2)n1

Result:
113 to 115 °C
270 to 271 °C
172 to 175 °C
272 to 273 °C

====

Exercise: for every item that follows, state its recorded melting point.

COc1c(F)c(F)c(C(=O)c2ccc(Br)cc2)c(F)c1F	80 to 82 °C
COc1ccc(N2CCc3ccccc32)c([N+](=O)[O-])c1	88 to 90 °C
C#CC1(c2ccc(OC(F)F)c(OCC3CC3)c2)CCC(=O)CC1	75 to 77 °C

Would you be so kind as to report melting point for each listed record?
1. CN(c1ccccc1[N+](=O)[O-])S(C)(=O)=O
2. COc1ccccc1-n1c(=O)[nH]c2c(C(N)=O)nc(-c3cccc4[nH]cnc34)nc21

Result:
144 to 145 °C
312 °C

Batch of 3 molecules: report melting point for each.
1. O=c1c2ccccc2n(CCCCCl)c2ccc(Cl)cc12
2. O=C(NCCCO)OCc1ccccc1
3. CN1CCc2cc(O)c(O)cc2C1C1(c2ccc3ccccc3c2)CCC1 (stereo not drawn)

Result:
1. 101 to 106 °C
2. 47 to 49 °C
3. 150 to 153 °C

====

measurementKind: melting point

Previously resolved entries follow.
COc1ccc(-c2cc3cc(F)c(F)cc3[nH]2)cc1NS(=O)(=O)c1cccs1	211 to 213 °C
C=CCOc1ccccc1S(=O)(=O)NC(=O)n1nc(SCCF)n(C2CC2)c1=O	15 °C

Consider now this further compound.
Request: Quick check: melting point of `S=c1sc2ccccc2n1CNc1ccccc1` ?
Result: 102 to 103 °C

====

Kindly state melting point for each of the entries shown.

Some entries whose results are on file:
CCN(CC)c1nc2ccccc2n2c(C)nnc12	123 to 125 °C
OCCCc1cc(-c2ccc(Cl)cc2)n(-c2ccc(Cl)nn2)n1	131 to 133 °C
COC(=O)c1c(O)c(Br)c(Br)n1C	128 to 130 °C
COc1cccc(-c2nc(N)c(C#N)nc2-c2ccc(=O)n(C(C)C)c2)c1	192 °C
CC(CNC(=O)CN1CCCC1=O)N1CCN(C)CC1 (configuration not stated)	84 to 85 °C

List reported melting point for each of these compounds:
1. COc1ccc(C(=O)c2ccc(-c3nc4ccccc4o3)cc2)c(O)c1
2. CCCCCOc1ccc(-c2ncc(C#N)c(Cl)n2)cc1

Result:
1: 177 to 179 °C; 2: 140 to 142 °C

====

Please respond with reported melting point for every item in the list.

Some solved entries appear below for comparison.
CCCc1c(OCCCOc2ccc(C#N)cc2Cl)ccc(C(C)=O)c1O	96 to 97 °C
Cc1cc(-c2noc(C)c2-c2ccc(S(N)(=O)=O)c(F)c2)ccc1-c1cscn1	159 °C
CSc1ccc(-c2cc3ncn([C@H](C)[C@](O)(Cn4cncn4)c4ccc(F)cc4F)c(=O)c3s2)cc1	223 to 224 °C

// for each compound below, give its melting point
1. CN1CC(=Cc2c(F)c(F)c(N=[N+]=[N-])c(F)c2F)C(=O)C(=Cc2c(F)c(F)c(N=[N+]=[N-])c(F)c2F)C1
2. CCCCCCCCCCCOc1cccc(CCCC(NC(C)=O)(C(=O)OCC)C(=O)OCC)c1
3. Cn1c(=O)c(-c2ccc(Cl)cc2Cl)cc2c3cc(-c4csc(CO)n4)ccc3n(C)c21
4. CC(=O)N1CCc2cc(C(=O)C(C)Br)ccc21 (stereo not drawn)
5. COc1cc2ccc(-c3cc(C(=O)O)cs3)cc2cc1C12CC3CC(CC(C3)C1)C2

Result:
["153 °C", "38 to 39 °C", "261 to 262 °C", "140 to 142 °C", "314 to 316 °C"]
